- Tested on: Hepatotoxicity
- Experimental conditions: Liver
Each entry below carries its reported HepSE_hepatitis.

[
  {
    "Compound": "COc1ccc2cc([C@H](C)C(=O)O)ccc2c1",
    "Target or system": "Hepatotoxicity",
    "HepSE_hepatitis": 1
  },
  {
    "Compound": "C#C[C@]1(O)CC[C@H]2[C@@H]3CCC4=CC(=O)CC[C@@H]4[C@H]3CC[C@@]21CC",
    "Target or system": "Hepatotoxicity",
    "HepSE_hepatitis": 0
  },
  {
    "Compound": "CN(C)CCOC(c1ccccc1)c1ccccc1 [DIPHENHYDRAMINE]",
    "Target or system": "Hepatotoxicity",
    "HepSE_hepatitis": 0
  },
  {
    "Compound": "CN1[C@@H]2CC[C@H]1C[C@@H](OC(=O)C(CO)c1ccccc1)C2 (stereo not given in full)",
    "Target or system": "Hepatotoxicity",
    "HepSE_hepatitis": 0
  },
  {
    "Compound": "CC(C)C[C@H](NC(=O)[C@H](Cc1ccccc1)NC(=O)c1cnccn1)B(O)O",
    "Target or system": "Hepatotoxicity",
    "HepSE_hepatitis": 1
  },
  {
    "Compound": "CCCNCC(O)COc1ccccc1C(=O)CCc1ccccc1 (stereo not given)",
    "Target or system": "Hepatotoxicity",
    "HepSE_hepatitis": 1
  },
  {
    "Compound": "NNc1nncc2ccccc12 [HYDRALAZINE]",
    "Target or system": "Hepatotoxicity",
    "HepSE_hepatitis": 1
  },
  {
    "Compound": "Cc1ccc(-c2cc(C(F)(F)F)nn2-c2ccc(S(N)(=O)=O)cc2)cc1",
    "Target or system": "Hepatotoxicity",
    "HepSE_hepatitis": 1
  },
  {
    "Compound": "Brc1c(NC2=NCCN2)ccc2nccnc12",
    "Target or system": "Hepatotoxicity",
    "HepSE_hepatitis": 0
  },
  {
    "Compound": "COC(=O)[C@H](c1ccccc1Cl)N1CCc2sccc2C1",
    "Target or system": "Hepatotoxicity",
    "HepSE_hepatitis": 1
  }
]

* * *

Test system Hepatotoxicity, HepSE_Combined Scores listed for each of the compounds.

[
  {
    "Compound": "Clc1ccccc1C(c1ccccc1)(c1ccccc1)n1ccnc1",
    "HepSE_Combined Scores": 1
  },
  {
    "Compound": "CCCC1O[C@@H]2C[C@H]3[C@@H]4CCC5=CC(=O)C=C[C@]5(C)[C@H]4[C@@H](O)C[C@]3(C)[C@]2(C(=O)CO)O1 (some centres undefined) [BUDESONIDE]",
    "HepSE_Combined Scores": 0
  },
  {
    "Compound": "CCCC(=O)Nc1ccc(OCC(O)CNC(C)C)c(C(C)=O)c1 (centres undefined)",
    "HepSE_Combined Scores": 0
  },
  {
    "Compound": "C#C[C@]1(O)CC[C@H]2[C@@H]3CCC4=Cc5oncc5C[C@]4(C)[C@H]3CC[C@@]21C",
    "HepSE_Combined Scores": 1
  }
]

* * *

Target or system Hepatotoxicity; recorded quantity DILI positive/negative.
Metric name: DILI positive/negative

[
  {
    "Compound": "S=C=Nc1cccc2ccccc12 [1-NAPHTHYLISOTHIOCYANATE]",
    "Target or system": "Hepatotoxicity",
    "Data value": 1
  },
  {
    "Compound": "CN(C)CCN(Cc1ccccc1)c1ccccn1.Cl [TRIPELENNAMINE HYDROCHLORIDE]",
    "Target or system": "Hepatotoxicity",
    "Data value": 1
  },
  {
    "Compound": "Cc1cc(CC(=O)O)n(C)c1C(=O)c1ccc(Cl)cc1 [ZOMEPIRAC]",
    "Target or system": "Hepatotoxicity",
    "Data value": 0
  },
  {
    "Compound": "CN(C)C(=O)Oc1cc(OC(=O)N(C)C)cc(C(O)CNC(C)(C)C)c1 (centres undefined) [BAMBUTEROL]",
    "Target or system": "Hepatotoxicity",
    "Data value": 0
  },
  {
    "Compound": "C[C@@H](CO)NC(=O)[C@@H]1C=C2c3cccc4[nH]cc(c34)C[C@H]2N(C)C1.O=C(O)/C=C\\C(=O)O [ERGONOVINE MALEATE]",
    "Target or system": "Hepatotoxicity",
    "Data value": 0
  },
  {
    "Compound": "C#C[C@]1(O)CC[C@H]2[C@@H]3CCc4cc(OC)ccc4[C@H]3CC[C@@]21C [MESTRANOL]",
    "Target or system": "Hepatotoxicity",
    "Data value": 1
  },
  {
    "Compound": "Cc1nnc(NS(=O)(=O)c2ccc(N)cc2)s1 [SULFAMETHIZOLE]",
    "Target or system": "Hepatotoxicity",
    "Data value": 1
  },
  {
    "Compound": "Cl.Nc1cc(Cl)cc(Cl)c1",
    "Target or system": "Hepatotoxicity",
    "Data value": 0
  },
  {
    "Compound": "CCc1oc2ccccc2c1C(=O)c1cc(Br)c(O)c(Br)c1 [BENZBROMARONE]",
    "Target or system": "Hepatotoxicity",
    "Data value": 1
  }
]

Origin of the recorded values: ChEMBL document CHEMBL1909294
